tested on: Escherichia coli TOP10; test: shrunken log2 fold change of peptide-encoding DNA abundance (4.5 h post-induction vs induction); higher = less antimicrobial activity (less host growth inhibition); conditions: time post-induction: 4.5 h; library: site-saturation at positions 5, 18, 19, 20;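 also: peptides expressed intracellularly from a pBAD plasmid library in pooled LB shake-flask culture, induced with 0.3% L-arabinose, DNA abundance read by NGS, three biological replicates, DESeq2 with apeglm shrinkage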
experimental.readout: shrunken log2 fold change
Just the number.

Lab request: please report shrunken log2 fold change under test system Escherichia coli TOP10 for RRIRYRPPRLPRPRPRPMKDPRP -0.317

Give the reported shrunken log2 fold change for RRIRMRPPRLPRPRPRPQFNPRP (system: Escherichia coli TOP10). -0.661

Please provide the recorded shrunken log2 fold change for RRIRQRPPRLPRPRPRPNWQPRP , tested on Escherichia coli TOP10. -0.0119

Reported shrunken log2 fold change for Escherichia coli TOP10, given RRIRRRPPRLPRPRPRPATQPRP ? 0.691
